System: Saccharomyces cerevisiae
Assay: protein stability index of tFT-peptide fusion (C-terminal peptide) (PSI (0-1 scale)); higher = more stable (slower turnover);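 further: PSI is a weighted mean of sequencing reads over stability bins, variants kept only with over 10 reads, mCherry proximal and sfGFP distal, peptide attached via GGGS linker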
Conditions: genetic background: wild type; temperature: 30 C
Below, each entry is listed alongside its reported protein stability index.

seq_text	protein stability index
TELSLHFAGYAE	0.74
WGVGWVLEVLLG	0.529
TEIKILNKKKSR	0.729
PSALPPFQPGPL	0.747

-- ask GET /values?readout=protein stability index&item= `AKKAEKQKKEKT`
-- reply 0.82

-- ask GET /values?readout=protein stability index&item= `APSLPPVVQPLI`
-- reply 0.663

----------
Test system: Saccharomyces cerevisiae
Experiment: protein stability index of tFT-peptide fusion (C-terminal peptide) (PSI (0-1 scale)); higher = more stable (slower turnover)
Settings: genetic background: wild type; temperature: 30 C
measurement_label: protein stability index
# output: bare number, no unit

As a guide, the following entries are already answered.
seq_text	target_of_assay	protein stability index
SRRNRIYSHTSS	Saccharomyces cerevisiae	0.666
EGQARRAGRQGR	Saccharomyces cerevisiae	0.735
CTLSQGLSGSRI	Saccharomyces cerevisiae	0.661
ALAQSGNVVLDR	Saccharomyces cerevisiae	0.751
HGVVGVFGLVSG	Saccharomyces cerevisiae	0.664

-- ask GET /values?readout=protein stability index&item= `SIYNKNKKIKQK`
-- reply 0.688

-- ask GET /values?readout=protein stability index&item= `LFSPLKGILSVM`
-- reply 0.448

-- ask GET /values?readout=protein stability index&item= `QKNWWLETVLRG`
-- reply 0.72

-- ask GET /values?readout=protein stability index&item= `PLPRAPSPPPPP`
-- reply 0.694

-- ask GET /values?readout=protein stability index&item= `RLYTNEMIRGSF`
-- reply 0.69

-- ask GET /values?readout=protein stability index&item= `SPPPLPTAPPPL`
-- reply 0.713

-- ask GET /values?readout=protein stability index&item= `LPPSPHPPLPHL`
-- reply 0.886

----------
Test system: Saccharomyces cerevisiae
Experiment: protein stability index of tFT-peptide fusion (C-terminal peptide) (PSI (0-1 scale)); higher = more stable (slower turnover)
Conditions: genetic background: wild type; temperature: 30 C
measurement_label: protein stability index
# output: bare number, no unit

As a guide, the following entries are already answered.
seq_text	protein stability index
GGFARGRDGWQL	0.712
QWFTCLFYFRSP	0.57
CAVLGGGVVWGA	0.668

-- ask GET /values?readout=protein stability index&item= `SADGIVSQVTCL`
-- reply 0.693

-- ask GET /values?readout=protein stability index&item= `PPRPPSPLPLPP`
-- reply 0.687

-- ask GET /values?readout=protein stability index&item= `ILGGRIRLVGRK`
-- reply 0.708

-- ask GET /values?readout=protein stability index&item= `WGCAGVGGVGGG`
-- reply 0.685

-- ask GET /values?readout=protein stability index&item= `GGSFVLGAALGV`
-- reply 0.668

-- ask GET /values?readout=protein stability index&item= `TKLRHHKTQIVD`
-- reply 0.652

-- ask GET /values?readout=protein stability index&item= `SPAFPPPPGFPP`
-- reply 0.69

----------
Below, each entry is listed alongside its reported protein stability index.
Test system: Saccharomyces cerevisiae
Experiment: protein stability index of tFT-peptide fusion (C-terminal peptide) (PSI (0-1 scale)); higher = more stable (slower turnover)
Details: genetic background: wild type; temperature: 37 C
# output: bare number, no unit

As a guide, the following entries are already answered.
seq_text	protein stability index
VLLVSVFVATLL	0.284
VALSILCVFFFF	0.383
LFVVHCFLSVSS	0.133
VGRVIVIVVAGV	0.423

-- ask GET /values?readout=protein stability index&item= `AVLFAPPLSSNF`
-- reply 0.739

-- ask GET /values?readout=protein stability index&item= `GITSFFSWSFLS`
-- reply 0.366

-- ask GET /values?readout=protein stability index&item= `PPSPPPLSASVP`
-- reply 0.7

-- ask GET /values?readout=protein stability index&item= `GCVVLNTVAFIC`
-- reply 0.136

-- ask GET /values?readout=protein stability index&item= `FPWGRIFLRLRT`
-- reply 0.512

-- ask GET /values?readout=protein stability index&item= `GGYIINRWRTKN`
-- reply 0.273

-- ask GET /values?readout=protein stability index&item= `VYFRMGFMRVCV`
-- reply 0.493

-- ask GET /values?readout=protein stability index&item= `IHRSPLTLPLLV`
-- reply 0.538

-- ask GET /values?readout=protein stability index&item= `FGLMCFIFYVLV`
-- reply 0.337

-- ask GET /values?readout=protein stability index&item= `RPAVVPPPFAPL`
-- reply 0.7

-- ask GET /values?readout=protein stability index&item= `WLSFAIECGMVW`
-- reply 0.287

-- ask GET /values?readout=protein stability index&item= `SFFFTLLICFLF`
-- reply 0.244

-- ask GET /values?readout=protein stability index&item= `SYVFEFIVSVVF`
-- reply 0.341

-- ask GET /values?readout=protein stability index&item= `FLLYSILLAFLL`
-- reply 0.492

-- ask GET /values?readout=protein stability index&item= `VSIVLHSVPCGG`
-- reply 0.519
